# protocol_notes: Partition coefficient, log P of the compound
# Assay type: physicochemical
# setup_conditions: octanol/water; read-out: LogP
Lab note - cut at 4 for logP: MET if strictly below, NOT MET if not.

Request: Decide: logP of CC1(C)OC2=C(C(=O)C(=O)c3ccccc32)C(O)C1Br (configuration not stated) strictly below 4?
Result: MET

Request: # check: logP < 4 for CC1(C)CCC2=C(O1)C(=O)c1ccccc1C2=O [ALPHA-LAPACHONE]
Result: MET

Request: Decide: logP of CC1(C)OC2=C(CC1OC(=O)c1ccc(C#N)cc1)C(=O)C(=O)c1ccccc12 (racemic) strictly below 4?
Result: NOT MET

Request: Answer whether the molecule "CC(C)=CCC1=C(O[Si](C)(C)C(C)(C)C)C(=O)c2ccccc2C1=O" has logP strictly less than 4
Result: NOT MET

Request: Given the entry CC(C)(O)C1CC(=O)c2nccnc2-c2ccccc2C(=O)O1 (configuration not stated) , would its reported logP be below 4?
Result: MET

Request: Regarding CC(C)(O)C1CC2=C(O1)c1ccccc1C(=O)C2=O (configuration not stated) , kindly confirm whether its logP is beneath 4.
Result: MET

Request: I wonder whether CC(C)=CCC1=C2NC3CCCCC3N=C2c2ccccc2C1=O (configuration not stated) has logP below 4. Can you tell?
Result: NOT MET

Request: Does the reported logP of the following molecule sit strictly below 4? CC1(C)Oc2c(c3nccnc3c3ccccc23)CC1O (configuration not stated)
Result: MET

Request: Here's an entry: CC(C)(O)C1Cc2c(c3ccccc3c3nc4c(nc23)CCCC4)O1 (configuration not stated) . Is its logP below 4?
Result: NOT MET

Request: Is 4 strictly greater than the molecule's reported logP? molecule: C=C(C)C1CC2=C(O1)C(=O)c1ccccc1C2=O (stereo not drawn) [DEHYDROISO-ALPHA-LAPACHONE]
Result: MET

Request: Given the entry "CC(C)=CC1=C(O)C(=O)c2ccccc2C1=O" , would its reported logP be below 4?
Result: MET

Request: Does the reported logP of the following molecule sit strictly below 4? CC(=O)OC1=C(CC2OC2(C)C)C(=O)c2ccccc2C1=O (configuration not stated)
Result: MET

Request: Lab log: compare recorded logP with 4; is it strictly lower for CCCCCCCCCCCC(=O)OC1CC2=C(OC1(C)C)c1ccccc1C(=O)C2=O (configuration not stated) ?
Result: NOT MET

Request: Identify whether the molecule CC(C)(O)C1CC2=C(O1)C(=O)c1ccccc1C2=O (configuration not stated) records logP below 4.
Result: MET

Request: Could you please tell me whether logP recorded for "CC1(C)CCc2c(c3ccccc3c3nccnc23)O1" is less than 4?
Result: NOT MET

---

# protocol_notes: Partition coefficient, log P of the compound
# Format: physicochemical
# setup_conditions: octanol/water; read-out: LogP
test_readout: logP

compound CC(=O)OC1=C(CC(Br)C(C)(C)O)C(=O)c2ccccc2C1=O (stereo unspecified) , logP observed: 3.5

Reported logP ( CC(=O)OC1CC2=C(OC1(C)C)c1ccccc1C(=O)C2=O (stereo unspecified) ) = 3

Briefly, logP measured for "CC1(C)OC2=C(C=C1Br)C(=O)C(=O)c1ccccc12" : 3.5

For reference, reported logP for "CC1(C)C[C@@H](O)C2=C(O1)c1ccccc1C(=O)C2=O" stands at 2.2

Sure, the documented logP for CC1(C)Oc2c(c3nccnc3c3ccccc23)CC1Br (stereo unspecified) is 4.8

Per the records, this compound ( CC1(C)CCC2=C(O1)c1ccccc1C(=O)C2=O [LAPACHONE] ) has logP equal to 3.2

Measured logP, CC(=O)OC1Cc2c(c3ccccc3c3nc4c(nc23)CCCC4)OC1(C)C (stereo unspecified) : 5.7

Value of measured logP for the entry "CO[C@@H](C(=O)O[C@H]1CC2=C(OC1(C)C)c1ccccc1C(=O)C2=O)c1ccccc1" : 5

Noted for CC(C)(Br)C1CC2=C(O1)c1ccccc1C(=O)C2=O (stereo unspecified) : its logP reads 3.2

// logP lookup, compound = CC(C)C(=O)OC1CC2=C(OC1(C)C)c1ccccc1C(=O)C2=O (stereo unspecified) , result: 3.8

Reported logP of "CC1(C)CCC2=C(O1)c1ccccc1/C(=N/O)C2=O" : 4.6

Value source: ChEMBL document CHEMBL1141372
